Compiled pIC50 measurements on Epidermal growth factor receptor (Homo sapiens, UniProt P00533) taken from the literature.
pIC50: −log10 of the molar value.

Some compounds with known pIC50 results, for comparison:
Observed pIC50 on Epidermal growth factor receptor (Homo sapiens, UniProt P00533), entry CN(C)C/C=C/C(=O)N1CC[C@@H](n2nc(-c3ccc(C(=O)Nc4cc(C#N)ccn4)cc3)c3c(N)ncnc32)C1 , equals 6.00 to 7.00

Recorded pIC50 for C=CC(=O)Nc1cccc(Nc2nc(Nc3ccc(N4CCCN(C(C)=O)CC4)cc3OC)ncc2C(F)(F)F)c1 on Epidermal growth factor receptor (Homo sapiens, UniProt P00533) was 7.52 to 8.00

Form field, pIC50 with Epidermal growth factor receptor (Homo sapiens, UniProt P00533), item COc1ccc(OC)c(C2Cc3cnc(Nc4ccccc4)nc3N(c3ccccc3)C2=O)c1 (stereo not shown) : > 5.00

--- query ---
Recorded pIC50 for C#Cc1cccc(Nc2ncnc3cc(OC(C)C)c4c(c23)OCCO4)c1 on Epidermal growth factor receptor (Homo sapiens, UniProt P00533) was > 7.30

###

Below: molecules with IC50 recorded for Epidermal growth factor receptor (Homo sapiens, UniProt P00533) in separate published works.

Input C[C@@H](Nc1ncnc2[nH]c(-c3ccc(OCCCCCCC(=O)NO)cc3)cc12)c1ccc(F)cc1 . Output IC50: 100 to 1000 nM

***
IC50 measured on COc1ccc(Oc2ccc(Nc3ncnc4sc5c(c34)CCN(C(=O)/C=C/CN3CC[C@H](CO)C3)C5)cc2C)cn1 = > 10000 nM

The molecule listed as C=CC(=O)Nc1cccc(N2C(=O)N(c3cccc([N+](=O)[O-])c3)Cc3cnc(Nc4ccc(N5CCN(C)CC5)cc4OC)nc32)c1 shows IC50 equal to ≤ 10 nM

IC50 reading for CCN1CCC(Nc2ccc3c(c2)/C(=C(\c2cccc(C(=N)N)c2)c2nc4ccccc4[nH]2)C(=O)N3)CC1 : 500 to 5000 nM

Lab book: IC50 of COc1ccccc1C(=O)NCc1ccc(-c2nn(C3CC=CC3)c3ncnc(N)c23)cc1 noted as 100 to 1000 nM

The recorded IC50 for C=CC(=O)Nc1cccc(N2C(=O)N(C)Cc3cnc(Nc4ccc(N5CC[C@@H](N(C)C)C5)cc4OC)nc32)c1 is 10 to 100 nM

###

Consider the following IC50 data for Epidermal growth factor receptor (Homo sapiens), collected from several reports.

The compound listed as C=CC(=O)N1CCC[C@@H](Nc2n[nH]c3nccc(Oc4cccc(C(=O)Nc5ccc(C(C)C)c(C)c5)c4)c23)C1 has a reported IC50 of < 0.1 µM

Recorded IC50 (compound COc1ccccc1C(=O)NCc1c(F)cc(-c2nn(C3CCCC3)c3ncnc(N)c23)cc1F ): 1 to 10 µM

GET /value?item= CSc1nc(-c2cccc(NC(=O)c3cc(O)ccc3F)c2)c[nH]1 &field=IC50 returns > 100 µM

New cases:
IC50 in this record for O=C(/C=C/CN1CCCC1)N1CCOc2c1ccc1ncnc(Nc3ccc(Oc4ccccc4)cc3)c21 : ≤ 0.05 µM

###

A compilation of IC50 values for Epidermal growth factor receptor (Homo sapiens, UniProt P00533) from the published literature.

# IC50 of CN1CCC(C(=O)N2CC[C@@H](Nc3n[nH]c4nccc(Oc5ccc(C(=O)Nc6cc(C(F)(F)F)ccn6)cc5)c34)C2)CC1 = 100 to 1000 nM

New cases:
Form field IC50, entry CN(C/C=C/C(=O)N1CC[C@@H](Nc2n[nH]c3nccc(Oc4ccc(C(=O)Nc5ccncn5)cc4)c23)C1)C1CC1 : > 10000 nM

Form field IC50, entry Cc1cccc(Oc2cc(Nc3cccc(NC(=O)/C=C/CN(C)C)n3)ncn2)c1 : ≤ 10 nM

The compound Cc1cnc(NC(=O)c2ccc(Oc3ccnc4[nH]nc(N[C@@H]5CCN(C(=O)C6CC6)C5)c34)cc2)s1 showed IC50 equal to 1000 to 10000 nM

// field: IC50; key: Cc1cnc(NC(=O)c2ccc(Oc3ccnc4[nH]nc(N[C@@H]5CCN(C(=O)CCCN(C)C)C5)c34)cc2)s1 ; value = > 10000 nM

Query COCCCC(=O)N1CCC[C@@H](Nc2n[nH]c3nccc(Oc4ccc(C(=O)Nc5cc(C)ccn5)cc4)c23)C1 yields IC50 of > 10000 nM

Kindly note the recorded IC50 for C=CC(=O)N1CCc2ccc(-c3c(-c4ccc(N5CCN(CC)CC5)cc4)[nH]c4nccc(Cl)c34)cc21 , which is ≤ 100 nM
